Numbers sourced from patent US20250042994A1.

Reported EC50 values are given for each entry in this list.
# Target Entity: T1, human CD19 on Raji cells (human, UniProt P15391 20-556)
# T1 construct: whole, on cells
# T1 sequence (looked up): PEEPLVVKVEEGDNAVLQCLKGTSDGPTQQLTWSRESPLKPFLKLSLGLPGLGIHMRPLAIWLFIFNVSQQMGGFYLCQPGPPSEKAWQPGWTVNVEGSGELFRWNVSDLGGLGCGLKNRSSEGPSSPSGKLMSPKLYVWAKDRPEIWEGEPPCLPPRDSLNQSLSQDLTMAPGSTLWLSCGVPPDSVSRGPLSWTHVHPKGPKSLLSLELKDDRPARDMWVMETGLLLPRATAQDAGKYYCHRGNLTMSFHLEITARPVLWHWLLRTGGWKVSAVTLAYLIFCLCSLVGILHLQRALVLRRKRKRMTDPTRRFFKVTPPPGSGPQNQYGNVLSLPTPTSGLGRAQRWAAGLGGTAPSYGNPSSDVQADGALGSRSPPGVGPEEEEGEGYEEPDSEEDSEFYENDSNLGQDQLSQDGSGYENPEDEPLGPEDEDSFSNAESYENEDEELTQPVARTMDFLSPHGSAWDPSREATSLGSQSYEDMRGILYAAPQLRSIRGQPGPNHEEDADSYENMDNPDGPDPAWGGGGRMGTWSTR
# Method Summary: FACS on Raji cells
The reply should contain only the number, in nM.

Examples with their reported EC50 follow.
INSERT INTO results (binder, numeric_result) VALUES
  ('F4.78.1 (antibody, human IgG1, V domains shown, human-murine chimeric antibody, human IgG1) VH: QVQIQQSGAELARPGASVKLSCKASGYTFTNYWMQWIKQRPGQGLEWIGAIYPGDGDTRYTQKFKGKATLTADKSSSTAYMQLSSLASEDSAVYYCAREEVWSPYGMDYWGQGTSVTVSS VL: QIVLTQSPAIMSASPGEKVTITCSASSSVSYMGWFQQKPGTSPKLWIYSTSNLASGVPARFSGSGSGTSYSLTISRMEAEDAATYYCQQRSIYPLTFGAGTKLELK', 1.52),
  ('F6.2.9 (antibody, human IgG1, V domains shown, human-murine chimeric antibody, human IgG1) VH: QVQLQQSGAELVKPGASVKISCKASGYAFSSYWMNWVKQRPGKGLEWIGQIYPGDGDTNYNGKFKGKATLTADKSSSTGYMQLSSLTSEDSAVYFCARSRITSVVDWYFDVWGTGTTVTVSS VL: QIVLSQSPAILSASPGEKVTMTCRASSSVSYMHWYQQKPGSSPKPWIYATSNLASGVPARFSGSGSGTSYSLTISRVEAEDAATYYCQQWSSNPPTFGAGTKLELK', 0.98),
  ('F4.272.13 (antibody, human IgG1, V domains shown, human-murine chimeric antibody, human IgG1) VH: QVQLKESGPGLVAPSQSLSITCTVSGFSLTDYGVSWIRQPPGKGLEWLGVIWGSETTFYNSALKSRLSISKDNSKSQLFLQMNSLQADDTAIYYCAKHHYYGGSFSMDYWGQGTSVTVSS VL: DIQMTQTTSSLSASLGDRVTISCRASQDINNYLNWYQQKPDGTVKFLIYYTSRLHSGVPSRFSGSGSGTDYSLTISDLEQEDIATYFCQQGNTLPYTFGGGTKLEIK', 0.81),
  ('F4.276.12 (antibody, human IgG1, V domains shown, human-murine chimeric antibody, human IgG1) VH: EIQLQQSGPELVKPGASVKVSCKASGYAFSAYNMYWVKQSHGKSLEWIGYIDPYNGGTNYNQKFKGKATLTVDKSSSTAYMHLNSLTSEDSAVYYCARDGYEVTYWGQGTLVTVSA VL: QIVLTQSPALMSASLGEEITLTCSASSSVTYMHWSQQKSGTSPRLLIYSTSNLASGVPSRFSGSGSGTFYSLTISSVEAEDAADYYCHQWSSYPWTFGGGTKLEIK', 0.78);

Moving on to another binder below.
Which measured EC50 value corresponds to F5.8.6 (antibody, human IgG1, V domains shown, human-murine chimeric antibody, human IgG1) VH: QVQLHQPGAELVMPGASVTLSCKASGYTFTSYWMHWVKQRPGQGLEWIGEIDPSDSYTTYDQKFKGKATLTVDKFSSTAYMQFSSLTSEDSAVYYCARLTGNHLDYWGQGTTLTVSS VL: DIVMTQSHKFMSSSVGDRVSITCKASQDVSPAVAWYQQKPGQSPKLLIYSTSYRNTGVPDRFTGSGSGTDFTFTISSVQAEDLAVYYCQQHYSIPLTFGAGTKLELK ? 1.26
